pIC50: −log10 of the molar value.
Please go through the items and note down their pIC50.

Given `COC1(C(=O)N2Cc3nc(Cl)nc(N[C@H](C)c4cccc(C(F)F)c4F)c3C2)CCN(C2COC2)CC1` , report its pIC50 on SOS1 catalytic domain (residues 564-1049) (Homo sapiens, UniProt Q07889).
Sequence (Q07889 564-1049): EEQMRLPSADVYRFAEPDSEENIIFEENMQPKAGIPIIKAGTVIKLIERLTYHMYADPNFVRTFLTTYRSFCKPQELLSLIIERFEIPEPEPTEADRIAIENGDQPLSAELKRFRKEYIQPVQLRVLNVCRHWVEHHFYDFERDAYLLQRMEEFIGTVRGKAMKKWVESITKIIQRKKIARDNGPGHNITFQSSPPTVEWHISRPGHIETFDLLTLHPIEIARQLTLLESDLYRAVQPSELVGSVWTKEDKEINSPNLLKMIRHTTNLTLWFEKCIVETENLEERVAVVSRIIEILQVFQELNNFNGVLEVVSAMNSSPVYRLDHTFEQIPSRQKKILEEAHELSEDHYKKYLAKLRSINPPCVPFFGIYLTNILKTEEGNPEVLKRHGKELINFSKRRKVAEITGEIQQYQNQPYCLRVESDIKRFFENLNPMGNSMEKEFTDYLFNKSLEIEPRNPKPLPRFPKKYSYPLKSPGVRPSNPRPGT
> 6.00

Given `COc1cccc(C(=O)N2Cc3nc(Cl)nc(N[C@H](C)c4cc(N)cc(C(F)(F)F)c4)c3C2)c1OC` , report its pIC50 on SOS1 catalytic domain (residues 564-1049) (Homo sapiens, UniProt Q07889).
> 6.00

Given `C[C@@H](Nc1nc(Cl)nc2c1CN(C(=O)C1(N)COC1)C2)c1cccc(C(F)F)c1F` , report its pIC50 on SOS1 catalytic domain (residues 564-1049) (Homo sapiens, UniProt Q07889).
> 6.00

Given `COC[C@H]1CCCN1C(=O)N1Cc2nc(Cl)nc(N[C@H](C)c3cc(N)cc(C(F)(F)F)c3)c2C1` , report its pIC50 on SOS1 catalytic domain (residues 564-1049) (Homo sapiens, UniProt Q07889).
> 6.00

Given `C[C@@H](Nc1nc(Cl)nc2c1CN(C(=O)C1CN(C3COC3)C1)C2)c1cccc(C(F)F)c1F` , report its pIC50 on SOS1 catalytic domain (residues 564-1049) (Homo sapiens, UniProt Q07889).
> 6.00

Given `C[C@@H](Nc1nc(Cl)nc2c1CN(C(=O)C1(O)CCOCC1)CC2)c1cc(N)cc(C(F)(F)F)c1` , report its pIC50 on SOS1 catalytic domain (residues 564-1049) (Homo sapiens, UniProt Q07889).
< 6.00

Given `C[C@@H](Nc1nc(Cl)nc2c1CN(C(=O)N1CCNCC1)C2)c1cc(N)cc(C(F)(F)F)c1` , report its pIC50 on SOS1 catalytic domain (residues 564-1049) (Homo sapiens, UniProt Q07889).
> 6.00

Given `CC(=O)N1CCN(C(=O)N2Cc3nc(Cl)nc(N[C@H](C)c4cccc(C(F)(F)F)c4)c3C2)CC1` , report its pIC50 on SOS1 catalytic domain (residues 564-1049) (Homo sapiens, UniProt Q07889).
> 6.00

Given `C[C@@H](Nc1nc(Cl)nc2c1CN(S(=O)(=O)N1CCCC1)CC2)c1cc(N)cc(C(F)(F)F)c1` , report its pIC50 on SOS1 catalytic domain (residues 564-1049) (Homo sapiens, UniProt Q07889).
> 6.00

Given `C[C@@H](Nc1nc(Cl)nc2c1CN(C(=O)C1(C#N)CCN(C)CC1)C2)c1cccc(C(F)(F)F)c1` , report its pIC50 on SOS1 catalytic domain (residues 564-1049) (Homo sapiens, UniProt Q07889).
> 6.00

Given Cc1nc2c(c(N[C@H](C)c3cc(N)cc(C(F)(F)F)c3)n1)CC(C(=O)N1CCOCC1)C2 (stereo partly drawn) , report its pIC50 on SOS1 catalytic domain (residues 564-1049) (Homo sapiens, UniProt Q07889).
> 6.00

Given `C[C@@H](Nc1nc(Cl)nc2c1CN(C(=O)C1CCOCC1)C2)c1cc(N)cc(C(F)(F)F)c1` , report its pIC50 on SOS1 catalytic domain (residues 564-1049) (Homo sapiens, UniProt Q07889).
> 6.00

Given `COC1CN([C@@H]2CCc3nc(Cl)nc(N[C@H](C)c4cc(N)cc(C(F)(F)F)c4)c3C2)C1` , report its pIC50 on SOS1 catalytic domain (residues 564-1049) (Homo sapiens, UniProt Q07889).
> 6.00

Given `C[C@@H](Nc1nc(Cl)nc2c1CN(C(=O)N1CCOCC1)C2)c1cccc(C(F)F)c1Cl` , report its pIC50 on SOS1 catalytic domain (residues 564-1049) (Homo sapiens, UniProt Q07889).
> 6.00

Given C[C@@H](Nc1nc(Cl)nc2c1CN(C(=O)C13COC(CCO1)C3)CC2)c1cc(N)cc(C(F)(F)F)c1 (stereo partly drawn) , report its pIC50 on SOS1 catalytic domain (residues 564-1049) (Homo sapiens, UniProt Q07889).
< 6.00

Given `C[C@@H](Nc1nc(Cl)nc2c1CN(C(=O)c1csc(N3CCOCC3)n1)C2)c1cc(N)cc(C(F)(F)F)c1` , report its pIC50 on SOS1 catalytic domain (residues 564-1049) (Homo sapiens, UniProt Q07889).
< 6.00

Given CC(Nc1nc(Cl)nc2c1CN(C(=O)N1CCOCC1)C2)c1cccc(C(F)(F)CO)c1 (stereo not drawn) , report its pIC50 on SOS1 catalytic domain (residues 564-1049) (Homo sapiens, UniProt Q07889).
> 6.00

Given `Nc1cc(CNc2nc(Cl)nc3c2CN(C(=O)N2CCOCC2)C3)cc(C(F)(F)F)c1` , report its pIC50 on SOS1 catalytic domain (residues 564-1049) (Homo sapiens, UniProt Q07889).
< 6.00

Given `C[C@@H](Nc1nc(Cl)nc2c1CN(C(=O)c1ccnnc1)C2)c1cc(N)cc(C(F)(F)F)c1` , report its pIC50 on SOS1 catalytic domain (residues 564-1049) (Homo sapiens, UniProt Q07889).
> 6.00

Given C[C@@H](Nc1nc(Cl)nc2c1CN(C(=O)CC1COCCN1)C2)c1cccc(C(F)F)c1F (stereo partly drawn) , report its pIC50 on SOS1 catalytic domain (residues 564-1049) (Homo sapiens, UniProt Q07889).
> 6.00

Given `C[C@@H](Nc1nc(Cl)nc2c1CN(C(=O)C1(F)CN(C3COC3)C1)C2)c1cccc(C(F)F)c1F` , report its pIC50 on SOS1 catalytic domain (residues 564-1049) (Homo sapiens, UniProt Q07889).
> 6.00

Given C[C@@H](Nc1nc(Cl)nc2c1CN(C(=O)N1CCNCC(F)C1)C2)c1cccc(C(F)F)c1F (stereo partly drawn) , report its pIC50 on SOS1 catalytic domain (residues 564-1049) (Homo sapiens, UniProt Q07889).
> 6.00

Given `C[C@@H](Nc1nc(Cl)nc2c1CN(C(=O)c1cnccn1)CC2)c1cc(N)cc(C(F)(F)F)c1` , report its pIC50 on SOS1 catalytic domain (residues 564-1049) (Homo sapiens, UniProt Q07889).
< 6.00

Given CC(Nc1nc(Cl)nc2c1CN(C(=O)N1CCOCC1)C2)c1cccc(C2CC2)c1 (stereo not drawn) , report its pIC50 on SOS1 catalytic domain (residues 564-1049) (Homo sapiens, UniProt Q07889).
< 6.00

Given `C[C@@H](Nc1nc(Cl)nc2c1CN(C(=O)N1CC3CC(C1)N3C)C2)c1cccc(C(F)F)c1F` , report its pIC50 on SOS1 catalytic domain (residues 564-1049) (Homo sapiens, UniProt Q07889).
> 6.00

Given CC(Nc1nc(Cl)nc2c1CN(C(=O)N1CCOCC1)C2)c1nccc(C(F)F)c1F (stereo not drawn) , report its pIC50 on SOS1 catalytic domain (residues 564-1049) (Homo sapiens, UniProt Q07889).
< 6.00

Given `C[C@@H]1CN(C(=O)N2Cc3nc(Cl)nc(N[C@H](C)c4cc(N)cc(C(F)(F)F)c4)c3C2)C[C@H](C)N1` , report its pIC50 on SOS1 catalytic domain (residues 564-1049) (Homo sapiens, UniProt Q07889).
> 6.00

Given `C[C@@H](Nc1nc(Cl)nc2c1CN(C(=O)N1C3CCC1COC3)C2)c1cccc(C(F)F)c1F` , report its pIC50 on SOS1 catalytic domain (residues 564-1049) (Homo sapiens, UniProt Q07889).
> 6.00

Given `COc1nccnc1C(=O)N1CCc2nc(Cl)nc(N[C@H](C)c3cc(N)cc(C(F)(F)F)c3)c2C1` , report its pIC50 on SOS1 catalytic domain (residues 564-1049) (Homo sapiens, UniProt Q07889).
< 6.00

Given `C[C@@H](Nc1nc(Cl)nc2c1CN(C(=O)N1CCNCC13COC3)C2)c1cccc(C(F)F)c1F` , report its pIC50 on SOS1 catalytic domain (residues 564-1049) (Homo sapiens, UniProt Q07889).
> 6.00

All values here come from patent US20230096028A1.
